Target: T1, whirlin-NTR-PDZ1-Hp1 (aa residues 2-265) (mouse, UniProt Q80VW5-1 2-265)
T1 construct: extra 7 aa at the N-terminus of all recombinant proteins of the study; whirlin (long isoform, L-whirlin), residues 2-265: NTR (with HHD1), PDZ1 and hairpin Hp1; The methods call the 2-265 construct whirlin-NTR-PDZ1; also called NTR-PDZ1-Hp1 whirlin fragment; Nter-PDZ1-Hp1; source: E. coli BL21 (DE3) codonPlus-RIPL, purified (Glutathione Sepharose 4B, GST removed by TEV proteinase, SEC)
T1 sequence: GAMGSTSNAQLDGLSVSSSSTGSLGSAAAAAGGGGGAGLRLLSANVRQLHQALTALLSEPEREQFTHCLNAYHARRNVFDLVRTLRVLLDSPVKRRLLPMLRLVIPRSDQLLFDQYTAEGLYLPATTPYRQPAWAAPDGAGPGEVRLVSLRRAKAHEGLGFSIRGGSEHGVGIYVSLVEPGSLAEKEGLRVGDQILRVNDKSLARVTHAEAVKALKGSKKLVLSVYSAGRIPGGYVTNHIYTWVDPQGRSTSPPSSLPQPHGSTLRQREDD
Assay: SPR; ProteOn XPR 36; N-terminally biotinylated peptides captured on a Neutravidin NLC sensor chip, whirlin fragments flowed as analytes at 20 μL/min for 2 min; 250 mM NaCl, 50 mM Tris pH 7.5, 0.5 mM TCEP; steady-state fit Req = (Rmax*C)/(Kd+C); mean of three experiments; Figure 4B shows the responses at 10 μM
Details: both partners purified
pKd: −log10 of the molar value. No end group written: not given here. *: point of attachment. Biotin = O=C1N[C@H]2[C@H](CS[C@H]2CCCCC(=O)*)N1; TTDS = trioxatridecan-succinamic acid spacer
recorded-metric: pKd

Query: Which pKd is listed for {Biotin-TTDS}-VIMESPLEITEL (C-terminal residues of cadherin-23, including the PBM; source: synthetic peptide (Eurogentec); not shown: biotin, N-terminal, kept) [CDH23 C-terminal peptide (biotin-TTDS-VIMESPLEITEL)] ?
Reply: ~4.70
